- SYSTEM_UNDER_TEST: KCa3.1 channel (Homo sapiens, UniProt O15554)
- EXPERIMENT: KCa3.1 patch-clamp (QPatch HTX automated and manual)
- Assay type: cell-based
- CONDITION_SUMMARY: KCa3.1 IC50 (nM), Table 3
OBSERVED_PROPERTY: IC50

See these solved cases before continuing.
COC(=O)C1=CNC=C(C(=O)OC)C1c1ccc(F)c(C(F)(F)F)c1 [Compound 103]	6.1 nM
COC(=O)C1=C(C)NC(C)=C(C(C)=O)C1c1ccc(F)c(C(F)(F)F)c1 (stereo not drawn) [Compound 57]	16.8 nM

IC50 for COC(=O)C1=CNC=C(C(=O)OC)C1c1ccc(Cl)c(C(F)(F)F)c1 [Compound 113] is 5.7 nM

IC50 for COC(=O)C1=CNC=C(C(=O)OC)C1c1cccc(C(F)(F)F)c1 [Compound 108] is 18.5 nM

IC50 for COC(=O)C1=C(C)NC(C)=C(C(C)=O)C1c1cccc([N+](=O)[O-])c1 (stereo not drawn) [Compound 79] is 142 nM

IC50 for COC(=O)C1=CNC=C(C(=O)OC)C1c1cc(F)c(F)c(C(F)(F)F)c1 [Compound 110] is 6.9 nM

IC50 for COC(=O)C1=C(C)NC(C)=C(C(=O)OC)C1c1ccc(Cl)c(C(F)(F)F)c1 [Compound 102] is 7 nM

IC50 for COC(=O)C1=CNC=C(C(=O)OC)C1c1cc(F)cc(C(F)(F)F)c1 [Compound 109] is 4.5 nM

IC50 for COC(=O)C1=CNC(C)=C(C(=O)OC)C1c1ccc(F)c(C(F)(F)F)c1 (stereo not drawn) [Compound 104] is 7.6 nM
